Listed next: entries and their corresponding z-score of subpopulation abundance.
# Tested on: Saccharomyces cerevisiae BY4741 SeMeCo community
# EXPERIMENT DESCRIPTION: z-score of subpopulation abundance vs DMSO median, subpopulation auxotrophic for HM; higher = larger share of this subpopulation than in DMSO controls
# CONDITION: 10 µM; 24 h; SM minimal medium; subpopulation (auxotrophy): HM
Counter-ions that a name gives are not always drawn.
// return a plain number; no unit text

Example cases with answers are listed next.
CO[C@@H]1[C@@H](OC(N)=O)[C@@H](O)[C@H](Oc2ccc3c(O)c(NC(=O)c4ccc(O)c(CC=C(C)C)c4)c(=O)oc3c2C)OC1(C)C [Novobiocin Sodium]: 1.59
C=C[C@]1(C)C[C@@H](OC(=O)CSC(C)(C)CNC(=O)[C@H](N)C(C)C)[C@]2(C)[C@H](C)CC[C@]3(CCC(=O)[C@H]32)[C@@H](C)[C@@H]1O [Valnemulin HCl]: 0.32

Given the entry "CC[C@H]1OC(=O)[C@H](C)[C@@H](O[C@H]2C[C@@](C)(OC)[C@@H](O)[C@H](C)O2)[C@H](C)[C@@H](O[C@@H]2O[C@H](C)C[C@H](N(C)C)[C@H]2O)[C@](C)(O)C[C@@H](C)CN[C@H](C)[C@@H](O)[C@]1(C)O" , report its measured z-score of subpopulation abundance. 0.1

Which z-score of subpopulation abundance value is on record for "CCOC(=O)C1=C(C)NC(C)=C(C(=O)OCC)C1c1ccccc1/C=C/C(=O)OC(C)(C)C" ? 1.9

Need z-score of subpopulation abundance, item Cc1cc(NS(=O)(=O)c2ccc(N)cc2)no1 [Sulfamethoxazole] 0.18

Please report the recorded z-score of subpopulation abundance for O=C1[C@H]2CCCC[C@H]2C(=O)N1CCCCN1CCN(c2nsc3ccccc23)CC1 [Perospirone hydrochloride] . -0.27

###

# System: Saccharomyces cerevisiae BY4741 SeMeCo community
# EXPERIMENT DESCRIPTION: z-score of subpopulation abundance vs DMSO median, subpopulation auxotrophic for UM; higher = larger share of this subpopulation than in DMSO controls
# CONDITION: 10 µM; 24 h; SM minimal medium; subpopulation (auxotrophy): UM
ENDPOINT NAME: z-score of subpopulation abundance

Quick check: z-score of subpopulation abundance of "O=c1[nH]c(=O)n([C@H]2C[C@H](O)[C@@H](CO)O2)cc1/C=C/Br" ? 0.16

Fill in the blank: the reported z-score of subpopulation abundance of CCCc1cc(C(N)=S)ccn1 [Protionamide] is ____. 0.32

Recorded z-score of subpopulation abundance of Nc1nc(/C(=C/CC(=O)O)C(=O)N[C@@H]2C(=O)N3C(C(=O)O)=CCS[C@H]23)cs1 [Ceftibuten dihydrate] , please. -0.49

Which z-score of subpopulation abundance reading was recorded for the compound CN1CCCN=C1/C=C/c1cccc(O)c1 [Oxantel Pamoate] ? -1.73

Suppose we examine the compound CC[C@H]1OC(=O)[C@H](C)[C@@H](O[C@H]2C[C@@](C)(OC)[C@@H](O)[C@H](C)O2)[C@H](C)[C@@H](O[C@@H]2O[C@H](C)C[C@H](N(C)C)[C@H]2O)[C@](C)(O)C[C@@H](C)C(=O)[C@H](C)[C@@H](O)[C@]1(C)O [Erythromycin thiocyanate] ; what z-score of subpopulation abundance value has been reported? 0.06
